# Target Desc: KCNQ2/3 channels (Homo sapiens, UniProt O43525+O43526)
# Construct: expressed in transfected cells
# Assay Text: Fluorescence assay using a voltage sensitive dye (fluorimetry)
# Format: cell-based
# Condition: CHO-K1 cells expressing KCNQ2/3 channels; retigabine 50 μM = 100%; read-out: Fluorimetry % efficacy (retigabine 50 μM = 100%)
Exercise: for every item that follows, state its recorded Emax.
Answers are plain numbers, in %.

In [3]: df
Out[3]:
                                   compound  reported_endpoint  reported_result
0  O=C(NCc1cccnc1)c1cccnc1SCCCc1ccc(F)cc1 [compound 127]               Emax              147
1  COc1ccccc1CCCNC(=O)c1cccnc1SCCCc1ccc(F)cc1 [compound 130]               Emax              164
2  O=C(NCC1CC2CCC1C2)c1cccnc1CCCS(=O)(=O)c1cccc(C(F)(F)F)c1 (stereo not drawn) [compound 32]               Emax              191
3  CCCNC(=O)c1cccnc1SCCCc1ccc(F)cc1 [compound 96]               Emax              194
4  O=C(NCc1ccc(F)cc1)c1cccnc1SCCCc1cccc(C(F)(F)F)c1 [compound 207]               Emax              119
5  O=C(NCc1cccc(F)c1)c1cccnc1SCCCc1ccc(F)cc1 [compound 64]               Emax              100
6  O=C(NCCC(F)(F)F)c1cccnc1SCCCc1ccc(F)cc1 [compound 48]               Emax              183
7  Cc1ccc(CCCSc2ncccc2C(=O)NCc2cccs2)cc1 [compound 99]               Emax               70

Consider the additional compound presented here.
Note to self: Emax recorded for O=C(NCCc1ccccn1)c1cccnc1SCCCc1ccc(F)cc1 [compound 82] was 96

====

# Target Desc: KCNQ2/3 channels (Homo sapiens, UniProt O43525+O43526)
# Construct: expressed in transfected cells
# Assay Text: Fluorescence assay using a voltage sensitive dye (fluorimetry)
# Type: cell-based
# Condition: CHO-K1 cells expressing KCNQ2/3 channels; retigabine 50 μM = 100%; read-out: Fluorimetry % efficacy (retigabine 50 μM = 100%)
Reported Endpoint: Emax (%)
Give bare numbers, in %.

>>> print(df.to_string())
                                   molecule  reported_result
0  O=C(NCC1Cc2ccccc2C1)c1cccnc1SCCCc1ccc(F)cc1               61
1       O=C(NCc1cccs1)c1cccnc1SCCCCc1ccccc1               48
2  CC(C)(C)C(=O)CNC(=O)c1cccnc1SCCCc1ccc(F)cc1               99
3  CC(CSc1ncccc1C(=O)NCC1CC2CCC1C2)Cc1ccc(F)cc1 (centres unmarked)              261
4  C[C@@H](CCc1ccccc1)Sc1ncccc1C(=O)NCCC(C)(C)C              207

Provide the reported Emax of each entry below, same order.
1. O=C(NCC1CCCOC1)c1cccnc1SCCC(F)(F)c1ccc(F)cc1 (centres unmarked)
2. O=C(NCc1cccs1)c1cccnc1CCCCc1ccc(F)cc1
3. Cc1ccc(CCCSc2ncccc2C(=O)NCc2cccs2)cc1C(F)(F)F

(A)
1. 210
2. 150
3. 90

Provide the reported Emax of each entry below, same order.
1. O=C(NCc1cccc(O)c1)c1cccnc1SCCCc1ccc(F)cc1
2. CCCCNC(=O)c1cccnc1SCCC(F)(F)c1ccc(F)cc1
3. COC(C)CNC(=O)c1cccnc1SCCC(F)(F)c1ccc(F)cc1 (centres unmarked)
4. CN(C)CCNC(=O)c1cccnc1SCCC(F)(F)c1ccc(F)cc1
5. O=C(NCc1cccs1)c1cccnc1SC1CCCCC1Cc1ccccc1 (centres unmarked)
6. O=C(NCC1CCCCCC1)c1cccnc1CCCCc1cccc(C(F)(F)F)c1
7. CCCCCCNC(=O)c1cccnc1SCCC(F)(F)c1ccc(F)cc1
8. O=C(NCc1cncs1)c1cccnc1SCCCc1ccc(F)cc1

(A)
1: 55; 2: 229; 3: 203; 4: 110; 5: 143; 6: 216; 7: 191; 8: 174

Provide the reported Emax of each entry below, same order.
1. CC1(C)CC1CNC(=O)c1cccnc1SCCCc1ccc(F)cc1 (centres unmarked)
2. O=C(NCC1CC2CCC1C2)c1cccnc1SCCOc1ccccc1 (centres unmarked)
3. O=C(NCC1CC2CCC1C2)c1cccnc1SCCCc1ccc(C(F)(F)F)c(F)c1 (centres unmarked)
4. O=C(NCc1ccc2c(c1)N(CC1CC1)CCO2)c1cccnc1SCCCc1ccc(F)cc1
5. O=C(NCc1ccccc1)c1cccnc1SCCCc1ccc(F)cc1

(A)
1. 176
2. 238
3. 220
4. 74
5. 121

Provide the reported Emax of each entry below, same order.
1. O=C(NCc1cccs1)c1cccnc1SCCCc1cccnc1
2. O=C(NCCc1ccccc1)c1cccnc1SCCCc1ccc(F)cc1
3. CCCCNC(=O)c1cccnc1SCCCc1ccc(F)cc1

(A)
[29, 53, 196]

Provide the reported Emax of each entry below, same order.
1. O=C(NCCCc1ccncc1)c1cccnc1SCCCc1ccc(F)cc1
2. O=C(NCCc1cccnc1)c1cccnc1SCCCc1ccc(F)cc1

(A)
1: 147; 2: 89

Provide the reported Emax of each entry below, same order.
1. O=C(NCc1ccncc1)c1cccnc1SCCCc1ccc(F)cc1
2. O=C(NCc1ccc(C(F)(F)F)cc1)c1cccnc1SCCCc1ccc(F)cc1
3. COCCNC(=O)c1cccnc1SCCCc1ccc(F)cc1
4. COCCNC(=O)c1cccnc1SCCC(F)(F)c1ccc(F)cc1
5. O=C(NCc1cccs1)c1cccnc1SCCCc1ccsc1
6. CC(C)CCNC(=O)c1cccnc1SCCC(F)(F)c1ccc(F)c(F)c1

(A)
122
104
196
181
95
228

Provide the reported Emax of each entry below, same order.
1. O=C(NCc1cccs1)c1cccnc1CCCS(=O)(=O)c1ccccc1
2. O=C(NCC1CC2CCC1C2)c1cccnc1SCCCc1ccc(Cl)cc1 (centres unmarked)
3. O=C(NCC1C2CCC1CC2)c1cccnc1SCCCc1cccc(C(F)(F)F)c1 (centres unmarked)
4. O=C(NCc1cccs1)c1cccnc1SCCCCc1ccc(F)c(F)c1
5. CC(C)CCNC(=O)c1cccnc1SCCCc1ccc(F)cc1
6. CC(CSc1ccccc1)Sc1ncccc1C(=O)NCc1cccs1 (centres unmarked)

(A)
1. 13
2. 221
3. 249
4. 110
5. 185
6. 122

====

Exercise: for every item that follows, state its recorded Emax.
# Target Desc: KCNQ2/3 channels (Homo sapiens, UniProt O43525+O43526)
# Construct: expressed in transfected cells
# Assay Text: Fluorescence assay using a voltage sensitive dye (fluorimetry)
# Assay type: cell-based
# Condition: CHO-K1 cells expressing KCNQ2/3 channels; retigabine 50 μM = 100%; read-out: Fluorimetry % efficacy (retigabine 50 μM = 100%)
Answers are plain numbers, in %.

In [3]: df
Out[3]:
                                   molecule  reported_result
0  O=C(NCc1ccc(OC(F)(F)F)cc1)c1cccnc1SCCCc1ccc(F)cc1              103
1  O=C(NCC1CCOCC1)c1cccnc1SCCC(F)(F)c1ccc(F)cc1              161
2  O=C(NCC1CC2CCC1C2)c1cccnc1SCCCc1ccc(F)cc1F (stereo not drawn)              274

Provide the reported Emax of each entry below, same order.
1. O=C(NCCCc1ccccn1)c1cccnc1SCCCc1ccc(F)cc1
2. O=C(NCc1cccs1)c1cccnc1SCCCC1CCCCC1

(A)
[154, 97]

====

# Target Desc: KCNQ2/3 channels (Homo sapiens, UniProt O43525+O43526)
# Construct: expressed in transfected cells
# Assay Text: Fluorescence assay using a voltage sensitive dye (fluorimetry)
# Type: cell-based
# Condition: CHO-K1 cells expressing KCNQ2/3 channels; retigabine 50 μM = 100%; read-out: Fluorimetry % efficacy (retigabine 50 μM = 100%)
Reported Endpoint: Emax (%)
Give bare numbers, in %.

In [3]: df
Out[3]:
                                   compound  reported_result
0  O=C(NCC1CC2CCC1C2)c1cccnc1CCCSc1ccc(F)cc1 (stereo not shown) [compound 30]              261
1  O=C(NCc1ccc2ccccc2c1)c1cccnc1SCCCc1ccc(F)cc1 [compound 136]               28
2  Cc1cccc(CCCSc2ncccc2C(=O)NCc2cccs2)c1 [compound 103]              129
3  O=C(NCC1CCCCCCC1)c1cccnc1SCCCc1ccc(F)cc1 [compound 55]              149
4  O=C(NCC1CCc2ccccc2C1)c1cccnc1SCCCc1ccc(F)cc1 (stereo not shown) [compound 119]               30
5  Cc1ccc(CNC(=O)c2cccnc2SCCCc2ccc(F)cc2)o1 [compound 175]              173
6  O=C(NCc1nccs1)c1cccnc1SCCCc1ccc(F)cc1 [compound 144]              215
7  O=C(NCc1cccc(-c2ccccc2)c1)c1cccnc1SCCCc1ccc(F)cc1 [compound 122]               94

Provide the reported Emax of each entry below, same order.
1. O=C(NCc1cccc(N2CCOCC2)c1)c1cccnc1SCCCc1ccc(F)cc1 [compound 138]
2. CC(CCSc1ncccc1C(=O)NCC1CC2CCC1C2)c1ccc(F)cc1 (stereo not shown) [compound 91]

(A)
[92, 241]

Provide the reported Emax of each entry below, same order.
1. CC(C)CCNC(=O)c1cccnc1SC(C)CCc1cccc(C(F)(F)F)c1 (stereo not shown) [compound 203]
2. O=C(NCC12CCC(CC1)C2)c1cccnc1SCCCc1ccc(F)cc1 [compound 206]
3. O=C(NCc1cccs1)c1cccnc1CCCS(=O)(=O)c1cccc(C(F)(F)F)c1 [compound 12]
4. CC(CCc1ccc(F)c(F)c1)Sc1ncccc1C(=O)NCc1ccc(F)cc1 (stereo not shown) [compound 199]
5. O=C(NCC1CCCCC1)c1cccnc1CCCS(=O)(=O)c1ccccc1 [compound 8]
6. O=C(NCC1CC2CCC1C2)c1cccnc1SCCCc1cccc2ccccc12 (stereo not shown) [compound 52]
7. O=C(NCc1cccs1)c1cccnc1SCCCc1ccc2ccccc2c1 [compound 102]
8. COc1ccccc1CNC(=O)c1cccnc1SCCCc1ccc(F)cc1 [compound 76]

(A)
[233, 293, 170, 124, 37, 190, 111, 33]

Note to self: Emax recorded for O=C(NCC1CC2CCC1C2)c1cccnc1SCCCc1ccc(F)c(F)c1 (stereo not shown) [compound 60] was 236
